System: HT-29
method-notes: NCI tumour cell line growth inhibition, 48 h
Active and inactive are the calls of the source. Cut-off read from the data, not from the text of the source: active = GI50 up to about 1.1 µM and inactive = higher.
Please go through the items and note down their GI50.

Check out these entries, answers already filled in.
- Cc1cc(C)c(C2=NO[C@@H]3C(=O)N(c4ccc(Cc5ccc(N6C(=O)[C@H]7C(c8c(C)cc(C)cc8C)=NO[C@H]7C6=O)cc5)cc4)C(=O)[C@H]23)c(C)c1: > 100 µM (inactive)
- CCCCCCC(=O)c1ccc2ccccc2c1O: 25.1 µM (inactive)

Please give GI50 for each item listed below.
1. COc1ccccc1NC(=S)Nc1cc(C)cc(C)n1
2. CC1=NN(C(=O)Cc2ccccc2)C(=O)/C1=C\c1ccccc1O
3. N#Cc1c(-c2ccc(Cl)cc2)[nH]c(=O)n(C2OC(CO)C(O)C(O)C2O)c1=O (stereo unspecified)
4. CC1(C#N)CC(C)(C)C(/C=C2/CC(C)(C)C(/C=C3/OC(=N)CC3(C)C)=N2)=N1 (stereo unspecified)

1. > 100 µM (inactive)
2. > 100 µM (inactive)
3. > 100 µM (inactive)
4. 27.2 µM (inactive)

----------
System: TK-10
method-notes: NCI tumour cell line growth inhibition, 48 h
Activity calls are given as the source filed them. Cut-off read from the data, not from the text of the source: active = GI50 up to about 1.1 µM and inactive = higher.
reported-property: GI50

Check out these entries, answers already filled in.
• N#CCC(=O)N/N=C1/C(=O)NC(=O)C(=O)C1c1nc2ccccc2s1 (stereo unspecified) = > 100 µM (inactive)
• N#C/C(=C\c1ccccc1Br)C(=O)c1ccccc1 = > 63.4 µM (inactive)
• O[C@@]1(c2cccs2)c2cccc(Cl)c2[C@](O)(c2cccs2)c2cccc(Cl)c21 = 28.1 µM (inactive)
• COC1(CCO)CC=CCC1(CCO)OC (stereo unspecified) = > 100 µM (inactive)
• COc1cc(O)cc(/C=C/c2ccc(O)cc2)c1 = 29.4 µM (inactive)

State its GI50 for this molecule: CCN(CC)c1ccc(/N=N/c2ccc(-c3nc4cccn(C)c-4n3)cc2)cc1 27.9 µM (inactive)

----------
Test system: LOX IMVI
method-notes: NCI tumour cell line growth inhibition, 48 h
Active and inactive are the calls of the source. Cut-off read from the data, not from the text of the source: active = GI50 up to about 1.1 µM and inactive = higher.
reported-property: GI50

* N#CC(NCCO)=C1C(=O)c2ccccc2C1=O | > 100 µM (inactive)
* COC1(OC)CC2CCCCC2=C(C)N1S(=O)(=O)c1ccccc1 (stereo not given) | > 100 µM (inactive)

Please give GI50 for each item listed below.
1. Oc1nc2cc(Cl)ccc2nc1/C(=N\Nc1ccccc1)C(O)c1ccc(Cl)c(Cl)c1 (stereo not given)
2. COC(=O)C(=O)C(C(=O)C(=O)Nc1cc([N+](=O)[O-])ccc1[N+](=O)[O-])c1nc2ccc(C(=O)c3ccccc3)cc2nc1O (stereo not given)
3. CCN(CC)/[N+]([O-])=N/OC

1: > 100 µM (inactive); 2: 19.9 µM (inactive); 3: > 100 µM (inactive)

----------
System: SF-295
method-notes: NCI tumour cell line growth inhibition, 48 h
Active and inactive are the calls of the source. Rule as the data show it: active = GI50 up to about 1.1 µM and inactive = higher.
Outcome (select one): active, inactive

• COc1ccc(C2Oc3c(c(O)cc4c3[C@H](c3ccc(O)cc3O)[C@H](O)C(c3ccc(O)c(O)c3)O4)C[C@@H]2O)cc1O (some centres undefined) = inactive

Write down the call the test reported for this compound. Item: COC(=O)C(=O)C(C(=O)C(=O)Nc1cc([N+](=O)[O-])ccc1[N+](=O)[O-])c1nc2ccc(C(=O)c3ccccc3)cc2nc1O (centres undefined) inactive

Write down the call the test reported for this compound. Item: N#Cc1nc(C#N)c(N)[nH]1 inactive

Write down the call the test reported for this compound. Item: O=C1/C(=C/c2ccco2)N=C(c2ccccc2)N1c1ccc(S(=O)(=O)Nc2nccs2)cc1 inactive

Write down the call the test reported for this compound. Item: CN(CCCNC(=O)c1nn(-c2ccccc2)c2c1Cc1ccccc1-2)CCCNC(=O)c1nn(-c2ccccc2)c2c1Cc1ccccc1-2 inactive

Write down the call the test reported for this compound. Item: Cn1c2ccccc2c2c3c(c4c5ccccc5n(C)c4c21)C(=O)N(c1ccccc1)C3=O inactive

Write down the call the test reported for this compound. Item: O=C1/C(=C/c2ccccc2)CN(C(=O)CCN2CCOCC2)C/C1=C\c1ccccc1 inactive

Write down the call the test reported for this compound. Item: OC(c1cc2ccccc2o1)c1cc2ccccc2s1 (centres undefined) inactive

Write down the call the test reported for this compound. Item: COc1cc(C(c2ccccc2)N2C(=O)CC[C@H]2C(=O)O)cc(OC)c1OC (some centres undefined) inactive

----------
System: OVCAR-3
method-notes: NCI tumour cell line growth inhibition, 48 h
Activity calls are given as the source filed them. Rule as the data show it: active = GI50 up to about 1.1 µM and inactive = higher.
Outcome (select one): true = active, false = inactive

Solved entries (count: 5):
• COc1ccccc1-c1cc(=O)c2ccc(OC)c(OC)c2o1 = false
• Nn1c(S)nnc1-c1ccccc1Nc1ccccc1-c1nnc(S)n1N = false
• CC(=O)/N=C1\NC(=O)/C(=C/c2ccc(/C=C3/C(=O)N/C(=N\C(C)=O)N3C)cc2)N1C = false
• O=C1Nc2ccccc2/C1=N/Nc1c(F)c(F)c(F)c(F)c1F = false
• O=Cc1ccc2c(c1)CC1(C2)Cc2ccc3c(c2C1)CCC3 (stereo not given) = false

Write down the call the test reported for this compound. Item: COc1ccc(/N=N/C(=N/NC(=O)c2ccc(C)cc2)c2ccc(N(CCC#N)CCC#N)cc2OC)cc1 false

----------
Test system: OVCAR-4
method-notes: NCI tumour cell line growth inhibition, 48 h
The source made the active and inactive calls. Rule as the data show it: active = GI50 up to about 1.1 µM and inactive = higher.
reported-property: GI50

* CCN1c2cc(Br)cc3[nH]c(=O)n(c23)CCC1C (stereo unspecified) | 20 µM (inactive)
* Nn1c(S)nnc1-c1ccccc1Nc1ccccc1-c1nnc(S)n1N | > 50 µM (inactive)
* CC(C)(C)OC(=O)C1C(=O)NC(=O)CC1CC(OCc1ccccc1)C(COCc1ccccc1)OCc1ccccc1 (stereo unspecified) | 6.55 µM (inactive)
* Cc1nc2ccc(Cl)cc2c2c1CCO2 | > 100 µM (inactive)
* COc1c2occc2cc2ccc(=O)oc12 | > 100 µM (inactive)
* N#CC(C#N)=C(N)/C(C#N)=C/c1ccc2ccccc2n1 | 35.4 µM (inactive)
* O=c1ccc(-c2ccc(-n3ccnc3)cc2)nn1CCO | > 100 µM (inactive)
* C=C(CCC(C)C1CCC2C3=C(C(=O)CC21C)C1(C)CCC(=O)[C@@H](C)C1CC3=O)C(C)C(=O)O (stereo partly specified) | 48.1 µM (inactive)
* CC1CCCOc2ccc(cc2)/C=N\c2ccc(cc2)CCc2ccc(cc2)/N=C\c2ccc(cc2)OCCC1 | > 100 µM (inactive)
* CC1=NN(C(=O)Cc2ccccc2)C(=O)/C1=C\c1ccccc1O | > 100 µM (inactive)

Lab note: next compound to report on.
State its GI50 for this compound: CC1=NC=C(O)c2ccccc2O1 > 100 µM (inactive)

----------
Tested on: OVCAR-4
method-notes: NCI tumour cell line growth inhibition, 48 h
The source made the active and inactive calls. No stated cut-off is given here; in the data, active = GI50 up to about 1.1 µM and inactive = higher.
reported-property: GI50

Check out these entries, answers already filled in.
- O=C1Nc2ccccc2/C1=N/Nc1c(F)c(F)c(F)c(F)c1F: 82 µM (inactive)
- O=C1C(=O)c2ccccc2C=C1[N+](=O)[O-]: 31.3 µM (inactive)
- CC1=CC(N2C(=O)C(C)=CC2O)NC1=O (stereo unspecified): > 100 µM (inactive)
- c1ccc(COc2nc3cc(C45CC6CC(CC(C6)C4)C5)ccc3[nH]2)cc1: > 31.3 µM (inactive)
- CCC(c1ccccc1)c1cc(C(C)(C)C)cc(C(C)(C)C)c1O (stereo unspecified): 15.8 µM (inactive)

Lab note: next molecule to report on.
State its GI50 for this molecule: O=C(NN1CCCCC1)c1cc2cc(CCl)ccc2oc1=O 18.4 µM (inactive)

----------
Test system: T47D
method-notes: NCI tumour cell line growth inhibition, 48 h
Active and inactive are the calls of the source. No stated cut-off is given here; in the data, active = GI50 up to about 1.1 µM and inactive = higher. Where a SMILES comes first, the peptide text is derived from it. [ ]: non-standard residue; d: D form. Ac5c = NC1(C(=O)O)CCCC1
Please go through the items and note down their GI50.

- COC(=O)C1(NC(=O)C(C)NC(=O)C(CCCCN)NC(=O)C(CC(C)C)NC(C)=O)CCCC1 (stereo not drawn) (Ac-LKA[Ac5c]-OMe; configuration not given here): > 100 µM (inactive)
- CCn1cnc2c(NC(C)=O)ncnc21: > 100 µM (inactive)

Lab note: next compound to report on.
State its GI50 for this compound: O=C1CSCC(=O)Nc2ccccc2N1 > 100 µM (inactive)

----------
Test system: M14
method-notes: NCI tumour cell line growth inhibition, 48 h
Activity calls are given as the source filed them. No stated cut-off is given here; in the data, active = GI50 up to about 1.1 µM and inactive = higher.
reported-property: GI50

Please give GI50 for each item listed below.
1. C=C1C(=O)OC2CC(C)C3(O)CCC(=O)C3(C)CC12 (stereo not given)
2. COC1=CC(=O)N(C)C(O)C1(C#N)OC1OC(CO)C(O)C(O)C1O (stereo not given)
3. CC(=O)C1=C(C)N2C(=NC3=C(CCc4ccccc43)C2c2ccc(Cl)cc2)S1 (stereo not given)

1: 22 µM (inactive); 2: > 100 µM (inactive); 3: > 40.4 µM (inactive)

Please give GI50 for each item listed below.
1. O=C(O)CCC[C@]1(O)O[C@@]2(CCCC2=O)[C@]2(O)CCC[C@@]21O
2. Cc1ccc2c(O)c3c(cc2c1)C(=O)c1c2c(cc(O)c1C3=O)C1(C)OC(O2)C(O)C(N(C)C)C1O (stereo not given)
3. COc1cc(O)c2c(c1)C(=O)c1cc(C)cc(O)c1C2=O [PHYSCION]

1. > 100 µM (inactive)
2. 1.56 µM (inactive)
3. > 100 µM (inactive)

Please give GI50 for each item listed below.
1. O=C(C(=O)N1CC2C=CC1CC2)c1c[nH]c2ccccc12 (stereo not given)
2. CNS(=O)(=O)NN(C)S(=O)(=O)c1ccc(F)cc1
3. Oc1ccc2c3c1OC1C(=NN=C4CCC5(O)C6Cc7ccc(O)c8c7C5(CCN6CC5CC5)C4O8)CCC4(O)C(C2)N(CC2CC2)CCC314 (stereo not given)
4. O=C(NN1CCCCC1)c1cc2cc(CCl)ccc2oc1=O

["> 100 µM (inactive)", "> 100 µM (inactive)", "18.3 µM (inactive)", "18.8 µM (inactive)"]
